// inhibition at 12.5 µg/mL lookup, one value per entry
- System: Leishmania donovani
- Assay method text: Anti-leishmanial activity against intracellular amastigote stage of Leishmania donovani harboring luciferase gene infected in mouse J774A1 cells at 12.5 ug/ml after 72 hrs by luminescence assay relative to control
- Type: functional
- Reported conditions: J774.A1, 72 h
Report the value in % with no unit label.

{"Smiles input": "CC(=O)SC(SC(C)=O)c1cn(CCCCOc2ccc(C#N)cc2)c2ccccc12", "inhibition at 12.5 µg/mL / %": 97.8}
{"Smiles input": "CC(=O)SC(SC(C)=O)c1cn(CCCCCCOc2ccc(C#N)cc2)c2ccccc12", "inhibition at 12.5 µg/mL / %": 40.2}
{"Smiles input": "CC(=O)SC(SC(C)=O)c1cn(CCCCCOc2ccc(C#N)cc2)c2ccccc12", "inhibition at 12.5 µg/mL / %": 99.8}

// moving on: another record for inhibition at 12.5 µg/mL
# compound `CC(=O)SC(SC(C)=O)c1cn(CCCCCN2CCN(c3ccccc3)CC2)c2ccccc12` ; its inhibition at 12.5 µg/mL = 86.8

###

- Assay method text: Cytotoxicity against mouse J774A1 cells after 72 hrs by MTT assay
- Type: cell-based, J774.A1
Each record here notes measured CC50 at 72 h.

// solved cases for CC50 at 72 h follow
{"Smiles input": "CC(=O)SC(SC(C)=O)c1cn(CCCCCOc2ccc(C#N)cc2)c2ccccc12", "Readout": "CC50 at 72 h", "Endpoint value": "> 100 µg/mL"}
{"Smiles input": "CC(=O)SC(SC(C)=O)c1cn(CCCCCCOc2ccc(C#N)cc2)c2ccccc12", "Readout": "CC50 at 72 h", "Endpoint value": "> 100 µg/mL"}
{"Smiles input": "CC(=O)SC(SC(C)=O)c1cn(CCCCCN2CCN(c3ccccc3)CC2)c2ccccc12", "Readout": "CC50 at 72 h", "Endpoint value": "13.8 µg/mL"}

# ---- query compound ----
get_value(item= `CC(=O)SC(SC(C)=O)c1cn(CCCCOc2ccc(C#N)cc2)c2ccccc12` , readout=CC50 at 72 h) returns > 100 µg/mL
